- Applied Conditions: in DMF, 313.15 K
Readout Kind: solubility (mole fraction)
Give the figure by itself; no unit, no explanation.

Ask: Record request: solubility (mole fraction) value, item COC(=O)Nc1nc2ccc(Sc3ccccc3)cc2[nH]1
Result: 0.227

----------
- Applied Conditions: in DMF, 328.15 K
Readout Kind: solubility (mole fraction)
Give your answer as a number; write no unit.

Ask: May I ask what solubility (mole fraction) has been recorded for COC(=O)Nc1nc2ccc(Sc3ccccc3)cc2[nH]1 ?
Result: 0.47

----------
- Applied Conditions: in DMF, 318.15 K
Readout Kind: solubility (mole fraction)
# output: bare number, no unit

Ask: Query: solubility (mole fraction); subject: COC(=O)Nc1nc2ccc(Sc3ccccc3)cc2[nH]1
Result: 0.291

----------
- Applied Conditions: in ethanol, 318.15 K
Readout Kind: solubility (mole fraction)
I only need the number, thanks.

Ask: State the recorded solubility (mole fraction) for this entry: COC(=O)Nc1nc2ccc(Sc3ccccc3)cc2[nH]1
Result: 0.000918

----------
- Applied Conditions: in water, 308.15 K
Readout Kind: solubility (mole fraction)
Just the number, please.

Ask: Can you share its solubility (mole fraction)? I mean this molecule: COC(=O)Nc1nc2ccc(Sc3ccccc3)cc2[nH]1
Result: 1.12e-05

----------
- Applied Conditions: in ethanol, 328.15 K
Readout Kind: solubility (mole fraction)
// no unit string in output, number only

Ask: Requested field: solubility (mole fraction). Item: COC(=O)Nc1nc2ccc(Sc3ccccc3)cc2[nH]1
Result: 0.00137

----------
- Applied Conditions: in DMF, 323.15 K
Readout Kind: solubility (mole fraction)
Give the figure by itself; no unit, no explanation.

Ask: Value lookup for solubility (mole fraction); key = COC(=O)Nc1nc2ccc(Sc3ccccc3)cc2[nH]1
Result: 0.374

----------
- Applied Conditions: in ethylene glycol, 323.15 K
Readout Kind: solubility (mole fraction)
// keep it numeric: no unit symbol after the value

Ask: I'd like to know its solubility (mole fraction). The molecule in question is COC(=O)Nc1nc2ccc(Sc3ccccc3)cc2[nH]1
Result: 0.00101

----------
- Applied Conditions: in water, 288.15 K
Readout Kind: solubility (mole fraction)
Just the number, please, no unit after it.

Ask: Entry COC(=O)Nc1nc2ccc(Sc3ccccc3)cc2[nH]1 : reported solubility (mole fraction) = ?
Result: 4.51e-06

----------
- Applied Conditions: in DMF, 288.15 K
Readout Kind: solubility (mole fraction)
Format: numeric value only, no unit, no commentary.

Ask: Entry COC(=O)Nc1nc2ccc(Sc3ccccc3)cc2[nH]1 : reported solubility (mole fraction) = ?
Result: 0.0559

----------
- Applied Conditions: in ethanol, 323.15 K
Readout Kind: solubility (mole fraction)

Ask: Returns the measured solubility (mole fraction) for the input compound. Input: COC(=O)Nc1nc2ccc(Sc3ccccc3)cc2[nH]1
Result: 0.00112

----------
- Applied Conditions: in water, 328.15 K
Readout Kind: solubility (mole fraction)
Simply state the number, no unit and no words.

Ask: Form field: reported solubility (mole fraction) of COC(=O)Nc1nc2ccc(Sc3ccccc3)cc2[nH]1
Result: 2.51e-05

----------
- Applied Conditions: in ethanol, 313.15 K
Readout Kind: solubility (mole fraction)
Answer field: number only, no words.

Ask: # get_value(readout='solubility (mole fraction)', item= COC(=O)Nc1nc2ccc(Sc3ccccc3)cc2[nH]1 )
Result: 0.000734

----------
- Applied Conditions: in DMF, 303.15 K
Readout Kind: solubility (mole fraction)
API doc: respond with a numeric literal and nothing else, no unit.

Ask: What does the data say about its solubility (mole fraction)? Entry: COC(=O)Nc1nc2ccc(Sc3ccccc3)cc2[nH]1
Result: 0.134

----------
- Applied Conditions: in DMF, 293.15 K
Readout Kind: solubility (mole fraction)
Answer with a bare number; do not write a unit.

Ask: Quick check: solubility (mole fraction) of COC(=O)Nc1nc2ccc(Sc3ccccc3)cc2[nH]1 ?
Result: 0.0731

----------
- Applied Conditions: in ethanol, 303.15 K
Readout Kind: solubility (mole fraction)
Output: the number by itself.

Ask: Entry under review: COC(=O)Nc1nc2ccc(Sc3ccccc3)cc2[nH]1 . Reported solubility (mole fraction)?
Result: 0.000478

----------
- Applied Conditions: in ethanol, 298.15 K
Readout Kind: solubility (mole fraction)
Lab note: jot the number down without any unit.

Ask: For the compound shown here, COC(=O)Nc1nc2ccc(Sc3ccccc3)cc2[nH]1 , give the reported solubility (mole fraction).
Result: 0.000378

----------
- Applied Conditions: in ethylene glycol, 298.15 K
Readout Kind: solubility (mole fraction)
Answer field: number only, no words.

Ask: So what's the measured solubility (mole fraction) for this one? COC(=O)Nc1nc2ccc(Sc3ccccc3)cc2[nH]1
Result: 0.000305

----------
- Applied Conditions: in water, 298.15 K
Readout Kind: solubility (mole fraction)
No unit in the answer, only the number.

Ask: For the molecule shown here, COC(=O)Nc1nc2ccc(Sc3ccccc3)cc2[nH]1 , give the reported solubility (mole fraction).
Result: 7.25e-06

----------
- Applied Conditions: in ethylene glycol, 303.15 K
Readout Kind: solubility (mole fraction)
Give the figure by itself; no unit, no explanation.

Ask: Quick one: solubility (mole fraction) of COC(=O)Nc1nc2ccc(Sc3ccccc3)cc2[nH]1 ?
Result: 0.0004

----------
- Applied Conditions: in ethylene glycol, 288.15 K
Readout Kind: solubility (mole fraction)
Write the value as a bare number.

Ask: For COC(=O)Nc1nc2ccc(Sc3ccccc3)cc2[nH]1 , what is its reported solubility (mole fraction)?
Result: 0.000171

----------
- Applied Conditions: in water, 283.15 K
Readout Kind: solubility (mole fraction)
Kindly provide the number alone.

Ask: What solubility (mole fraction) value was documented for this compound, COC(=O)Nc1nc2ccc(Sc3ccccc3)cc2[nH]1 ?
Result: 3.69e-06

----------
- Applied Conditions: in ethylene glycol, 313.15 K
Readout Kind: solubility (mole fraction)
Answer with the value's number alone.

Ask: Which solubility (mole fraction) is listed for COC(=O)Nc1nc2ccc(Sc3ccccc3)cc2[nH]1 ?
Result: 0.000648

----------
- Applied Conditions: in ethanol, 283.15 K
Readout Kind: solubility (mole fraction)
// return just the number, without any unit appended

Ask: Item under review: COC(=O)Nc1nc2ccc(Sc3ccccc3)cc2[nH]1 . Reported solubility (mole fraction)?
Result: 0.000165

----------
- Applied Conditions: in ethylene glycol, 293.15 K
Readout Kind: solubility (mole fraction)
No unit in the answer, only the number.

Ask: Please give the measured solubility (mole fraction) for this molecule: COC(=O)Nc1nc2ccc(Sc3ccccc3)cc2[nH]1
Result: 0.000232

----------
- Applied Conditions: in ethylene glycol, 283.15 K
Readout Kind: solubility (mole fraction)
// no unit string in output, number only

Ask: Request the reported solubility (mole fraction) associated with COC(=O)Nc1nc2ccc(Sc3ccccc3)cc2[nH]1
Result: 0.000127

----------
- Applied Conditions: in ethanol, 288.15 K
Readout Kind: solubility (mole fraction)
The reply should be a number, written without any unit.

Ask: Query: solubility (mole fraction); subject: COC(=O)Nc1nc2ccc(Sc3ccccc3)cc2[nH]1
Result: 0.000219

----------
- Applied Conditions: in DMF, 298.15 K
Readout Kind: solubility (mole fraction)
Give the figure by itself; no unit, no explanation.

Ask: solubility (mole fraction) lookup needed for COC(=O)Nc1nc2ccc(Sc3ccccc3)cc2[nH]1 , thanks.
Result: 0.0997

----------
- Applied Conditions: in ethylene glycol, 308.15 K
Readout Kind: solubility (mole fraction)
Kindly provide the number alone.

Ask: Could you tell me which solubility (mole fraction) is on file for COC(=O)Nc1nc2ccc(Sc3ccccc3)cc2[nH]1 ?
Result: 0.000513

----------
- Applied Conditions: in water, 318.15 K
Readout Kind: solubility (mole fraction)
Number, no unit, nothing else.

Ask: Given the entry COC(=O)Nc1nc2ccc(Sc3ccccc3)cc2[nH]1 , report its measured solubility (mole fraction).
Result: 1.7e-05
